# assayed-target: rat cKIT
# Sequence (as listed by the source): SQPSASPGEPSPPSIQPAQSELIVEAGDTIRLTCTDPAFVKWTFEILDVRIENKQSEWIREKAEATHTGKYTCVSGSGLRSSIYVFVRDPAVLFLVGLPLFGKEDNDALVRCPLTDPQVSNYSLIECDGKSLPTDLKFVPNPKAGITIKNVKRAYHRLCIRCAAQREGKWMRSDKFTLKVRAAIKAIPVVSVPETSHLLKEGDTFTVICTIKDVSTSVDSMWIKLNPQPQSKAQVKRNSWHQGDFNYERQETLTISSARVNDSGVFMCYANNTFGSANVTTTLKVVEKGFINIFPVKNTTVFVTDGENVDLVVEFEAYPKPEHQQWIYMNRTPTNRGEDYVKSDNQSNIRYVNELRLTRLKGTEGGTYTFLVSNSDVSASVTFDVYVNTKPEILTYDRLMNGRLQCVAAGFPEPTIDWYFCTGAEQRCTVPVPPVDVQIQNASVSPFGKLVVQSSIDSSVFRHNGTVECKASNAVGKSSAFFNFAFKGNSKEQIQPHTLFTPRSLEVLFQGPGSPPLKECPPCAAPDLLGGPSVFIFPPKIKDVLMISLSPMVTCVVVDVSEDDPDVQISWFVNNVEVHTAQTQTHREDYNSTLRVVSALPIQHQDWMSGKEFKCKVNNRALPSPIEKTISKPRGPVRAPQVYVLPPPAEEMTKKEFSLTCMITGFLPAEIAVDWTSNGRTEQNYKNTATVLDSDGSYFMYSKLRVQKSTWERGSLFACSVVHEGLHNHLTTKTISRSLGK
# assay-info: SPR (Biacore) affinity measurement
# Format: binding
# recorded-conditions: 25° C., 1:1 model
reported-metric: Affinity to rat cKIT (nM)

molecule	obs-value
NEG027: anti-cKIT antibody of Table 3, VH SEQ ID NO 64, VL SEQ ID NO 73 (antibody, listed as Homo sapiens, V domains shown) VH: EVQLVESGGGLVQPGGSLRLSCAASGFTFSDYYMAWVRQAPGKGLEWVASINQNTGSTYYLDSVRGRFTISRDNAKNSLYLQMNSLRAEDTAVYYCARGDYYGTTYWYFDVWGQGTTVTVSS VL: EIVMTQSPATLSLSPGERATLSCRASQDISNYLNWYQQKPGQAPRLLIYYTSRLQSGIPARFSGSGSGTDYTLTISSLEPEDFAVYYCQQGKKLWSFGGGTKVEIK	Not reactive
NEG085: anti-cKIT antibody of Table 3, VH SEQ ID NO 82, VL SEQ ID NO 91 (antibody, listed as Homo sapiens, V domains shown) VH: EVQLVESGGGLVQPGGSLRLSCAASGFAFSGYYMAWVRQAPGKGLEWVANINYPGSSTYYLDSVKGRFTISRDNAKNSLYLQMNSLRAEDTAVYYCARGDYYGTTYWYFDVWGQGTTVTVSS VL: DIQMTQSPSSLSASVGDRVTITCRASQSISSYLNWYQQKPGKAPKLLIYYTSRLQSGVPSRFSGSGSGTDFTLTISSLQPEDFATYYCQQGRRLWSFGGGTKVEIK	Not reactive
